# Species: Rattus norvegicus
# experiment_description: The maximum inhibitory potency was calculated by fitting [35S]TBPS inhibition data to a sigmoid function (rat brain cortical P2 membranes) (high affinity)
# Type: functional
measured_quantity: Imax (%)
Answer in %, number only, no unit symbol.

Q: Which Imax is listed for CC(=O)[C@H]1CC[C@H]2[C@@H]3CC[C@@H]4C[C@@](O)(C#Cc5ccc(N)cc5)CC[C@]4(C)[C@H]3CC[C@]12C ?
Result: 17

Q: And CC(=O)c1cccc(C#C[C@@]2(O)CC[C@@]3(C)[C@H](CC[C@@H]4[C@@H]3CC[C@]3(C)[C@@H](C(C)=O)CC[C@@H]43)C2)c1 ?
Result: 34

Q: And CC(=O)[C@H]1CC[C@H]2[C@@H]3CC[C@@H]4C[C@@](O)(C#Cc5ccccc5O)CC[C@]4(C)[C@H]3CC[C@]12C ?
Result: 30

Q: And CC(=O)[C@H]1CC[C@H]2[C@@H]3CC[C@@H]4C[C@@](O)(C#Cc5ccc(C=O)cc5)CC[C@]4(C)[C@H]3CC[C@]12C ?
Result: 44

* * *

# System: Mus musculus
# experiment_description: Percent of animals (n=8) not exhibiting PTZ-induced ( Pentylentetrazol protection) seizures 10 min following a 10 mg/kg ip dose of steroid.
# Type: functional
# test_conditions: route intraperitoneal
What PTZ protection was measured for each of the following?
Answer in %, number only, no unit symbol.

Q: Which PTZ protection is listed for CC(=O)c1ccc(C#C[C@@]2(O)CC[C@H]3[C@H](CC[C@@H]4[C@@H]3CC[C@]3(C)[C@@H](C(C)=O)CC[C@@H]43)C2)cc1 ?
Result: 100

Q: And COc1ccc(C#C[C@@]2(O)CC[C@@]3(C)[C@H](CC[C@@H]4[C@@H]3CC[C@]3(C)[C@@H](C(C)=O)CC[C@@H]43)C2)cc1OC ?
Result: 13

Q: And CC(=O)[C@H]1CC[C@H]2[C@@H]3CC[C@@H]4C[C@@](O)(C#Cc5ccc(C(=O)c6ccccc6)cc5)CC[C@]4(C)[C@H]3CC[C@]12C ?
Result: 38

* * *

# target_or_system: GABA-A receptor; anion channel
# experiment_description: In vitro inhibition of [35S]TBPS binding to Gamma-aminobutyric acid A (GABA-A) receptor of rat brain cortical membranes in the presence of 5 uM GABA(high affinity)
# Assay type: cell membranes, Membrane
What pIC50 was measured for each of the following?
Please keep in mind that pIC50 is minus log10 of the molar concentration; only the number is needed.

Q: Provide value of pIC50 for this record tested with GABA-A receptor; anion channel: CC(=O)[C@H]1CC[C@H]2[C@@H]3CC[C@@H]4C[C@@](O)(C#Cc5ccccc5O)CC[C@]4(C)[C@H]3CC[C@]12C
Result: 7.09

Q: And CC(=O)[C@H]1CC[C@H]2[C@@H]3CC[C@@H]4C[C@@](O)(C#Cc5ccc(C=O)cc5)CC[C@]4(C)[C@H]3CC[C@]12C ?
Result: 7.17

* * *

# target_or_system: GABA-A receptor; anion channel
# experiment_description: In vitro inhibition of [35S]TBPS binding to Gamma-aminobutyric acid A receptor in rat brain cortical membranes in the presence of 5 uM GABA (high affinity)
# Assay type: cell membranes, Membrane
What IC50 was measured for each of the following?
Answer in nM, number only, no unit symbol.

Q: Which IC50 is listed for CC(=O)c1cccc(C#C[C@@]2(O)CC[C@@]3(C)[C@H](CC[C@@H]4[C@@H]3CC[C@]3(C)[C@@H](C(C)=O)CC[C@@H]43)C2)c1 ?
Result: 45

Q: And CC(=O)[C@H]1CC[C@H]2[C@@H]3CC[C@@H]4C[C@@](O)(C#Cc5ccc(N)cc5)CC[C@]4(C)[C@H]3CC[C@]12C ?
Result: 96

* * *

# System: Mus musculus
# experiment_description: Percent of animals (n=8) not exhibiting PTZ-induced ( Pentylentetrazol protection) seizures 10 min following a 10 mg/kg ip dose of steroid.
# Type: functional
# test_conditions: route intraperitoneal
measured_quantity: PTZ protection (%)
Answer in %, number only, no unit symbol.

Q: Which PTZ protection is listed for CC(=O)[C@H]1CC[C@H]2[C@@H]3CC[C@@H]4C[C@@](O)(C#Cc5ccc(C(N)=O)cc5)CC[C@]4(C)[C@H]3CC[C@]12C ?
Result: 13

Q: And CC(=O)[C@H]1CC[C@H]2[C@@H]3CC[C@@H]4C[C@@](O)(C#Cc5ccc(-c6ccccc6)cc5)CC[C@]4(C)[C@H]3CC[C@]12C ?
Result: 0

Q: And CC(=O)[C@H]1CC[C@H]2[C@@H]3CC[C@@H]4C[C@@](O)(C#Cc5ccc(C#N)cc5)CC[C@]4(C)[C@H]3CC[C@]12C ?
Result: 44

* * *

# target_or_system: GABA-A receptor; anion channel
# experiment_description: In vitro inhibition of [35S]TBPS binding to Gamma-aminobutyric acid A receptor in rat brain cortical membranes in the presence of 5 uM GABA (low affinity)
# Assay type: cell membranes, Membrane
measured_quantity: pIC50
Please keep in mind that pIC50 is minus log10 of the molar concentration; only the number is needed.

Q: Provide value of pIC50 for this record tested with GABA-A receptor; anion channel: CC(=O)[C@H]1CC[C@H]2[C@@H]3CC[C@@H]4C[C@@](O)(C#Cc5ccc(C=O)cc5)CC[C@]4(C)[C@H]3CC[C@]12C
Result: 5.80

* * *

What pIC50 was measured for each of the following?
# target_or_system: GABA-A receptor; anion channel
# experiment_description: In vitro inhibition of [35S]TBPS binding to gamma-aminobutyric-acid A receptor in rat brain cortical membranes in the presence of 5 uM GABA.
# Format: cell membranes, Membrane
Please keep in mind that pIC50 is minus log10 of the molar concentration; only the number is needed.

Q: Which pIC50 is listed for CC(=O)[C@H]1CC[C@H]2[C@@H]3CC[C@@H]4C[C@@](O)(CCCc5ccccc5)CC[C@]4(C)[C@H]3CC[C@]12C ?
Result: 6.72

Q: And CC(=O)[C@H]1CC[C@H]2[C@@H]3CC[C@@H]4C[C@@](O)(C#Cc5ccc6c(c5)OCO6)CC[C@]4(C)[C@H]3CC[C@]12C ?
Result: 7.17

Q: And CC(=O)c1ccc(C#C[C@@]2(O)CC[C@@]3(C)[C@H](CC[C@@H]4[C@@H]3CC[C@]3(C)[C@@H](C(C)=O)CC[C@@H]43)C2)cc1 ?
Result: 8.00

* * *

# experiment_description: Slope value was determined
What Slope was measured for each of the following?

Q: Which Slope is listed for CC(=O)c1ccc(C#C[C@@]2(O)CC[C@H]3[C@H](CC[C@@H]4[C@@H]3CC[C@]3(C)[C@@H](C(C)=O)CC[C@@H]43)C2)cc1 ?
Result: 1.4

Q: And CC(=O)[C@H]1CC[C@H]2[C@@H]3CC[C@@H]4C[C@@](O)(C#Cc5ccccc5O)CC[C@]4(C)[C@H]3CC[C@]12C ?
Result: 1.6

Q: And CC(=O)c1ccc(C#C[C@@]2(O)CC[C@@]3(C)[C@H](CC[C@@H]4[C@@H]3CC[C@]3(C)[C@@H](C(C)=O)CC[C@@H]43)C2)cc1 ?
Result: 1.2

Q: And CC(=O)[C@H]1CC[C@H]2[C@@H]3CC[C@@H]4C[C@@](O)(C#Cc5ccc(N(C)C)cc5)CC[C@]4(C)[C@H]3CC[C@]12C ?
Result: 1.1

* * *

# target_or_system: GABA-A receptor; alpha-1/beta-2/gamma-2 (Homo sapiens) (UniProt P14867+P47870+P18507)
# experiment_description: Efficacy as fractional response (FR) relative to GABA maximum current elicited in the Xenopus oocytes
# Format: functional, cell-based
# test_conditions: Oocyte
Output Condition met for Efficacy not less than 0.9; output Condition not met otherwise.

Q: Please indicate if the recorded Efficacy for CC(=O)c1ccc(C#C[C@@]2(O)CC[C@@]3(C)[C@H](CC[C@@H]4[C@@H]3CC[C@]3(C)[C@@H](C(C)=O)CC[C@@H]43)C2)cc1 meets or exceeds 0.9.
Result: Condition met

Q: And CC(=O)[C@H]1CC[C@H]2[C@@H]3CC[C@@H]4C[C@@](O)(C#Cc5ccc(N(C)C)cc5)CC[C@]4(C)[C@H]3CC[C@]12C ?
Result: Condition not met

Q: And CC(=O)[C@H]1CC[C@H]2[C@@H]3CC[C@@H]4C[C@@](O)(C#Cc5ccccc5O)CC[C@]4(C)[C@H]3CC[C@]12C ?
Result: Condition not met

* * *

# target_or_system: Gamma-aminobutyric acid receptor subunit gamma-1 (Rattus norvegicus, UniProt P23574)
# Sequence (P23574 whole entry): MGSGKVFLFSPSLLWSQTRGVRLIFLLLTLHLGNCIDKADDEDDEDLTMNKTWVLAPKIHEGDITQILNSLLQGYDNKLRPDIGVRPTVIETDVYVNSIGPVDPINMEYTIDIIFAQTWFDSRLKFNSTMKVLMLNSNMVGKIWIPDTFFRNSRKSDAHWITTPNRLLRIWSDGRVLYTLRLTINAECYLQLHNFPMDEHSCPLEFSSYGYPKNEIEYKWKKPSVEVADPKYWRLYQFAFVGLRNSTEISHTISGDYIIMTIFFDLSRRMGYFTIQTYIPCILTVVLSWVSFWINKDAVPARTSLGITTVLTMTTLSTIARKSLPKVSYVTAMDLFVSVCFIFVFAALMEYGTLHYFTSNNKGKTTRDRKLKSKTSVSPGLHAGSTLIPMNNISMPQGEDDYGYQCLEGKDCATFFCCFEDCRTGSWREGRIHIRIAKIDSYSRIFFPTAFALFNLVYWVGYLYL
# experiment_description: In vitro for inhibition of [35S]TBPS binding in rat brain cortical membranes in the presence of 5 uM GABA in two-component inhibition curve
# Type: functional, cell membranes, Membrane
measured_quantity: IC50 (nM)
Answer in nM, number only, no unit symbol.

Q: Which IC50 is listed for CC(=O)[C@H]1CC[C@H]2[C@@H]3CC[C@@H]4C[C@@](O)(C#Cc5ccc(C=O)cc5)CC[C@]4(C)[C@H]3CC[C@]12C ?
Result: 1600
